Test: Drug level in LPS-challenged BALB/c mouse plasma at 30 mg/kg, po after 6 hrs
Type: ADME, organism-based
Design: dose 30 mg/kg, route oral
Assignment: determine reported concentration at 6 h for the given compounds.
One number for each entry, in ng/mL.

Below, each entry is followed by its recorded concentration at 6 h result.
Cc1ncsc1C(=O)N(Cc1cc(=O)[nH]c2c(F)cccc12)c1cccc(Cl)c1 = 77
Cc1ncsc1C(=O)N(Cc1cc(=O)[nH]c2c(F)c(F)ccc12)c1cccc(Cl)c1 = 8
CC(C)C(=O)N(Cc1cc(=O)[nH]c2c(F)cccc12)c1cccc(Cl)c1 = 21

Provide the reported concentration at 6 h of each entry below, same order.
1. CC1=C(C(=O)N(Cc2cc(=O)[nH]c3c(F)c(F)ccc23)c2cccc(Cl)c2)CNCC1
2. Cc1ncsc1C(=O)N(Cc1c[n+]([O-])cc2c(F)c(F)ccc12)c1cccc(Cl)c1
3. Cc1ncsc1C(=O)N(Cc1c[n+]([O-])cc2c(F)cccc12)c1cccc(Cl)c1
4. Cn1cncc1C(=O)N(Cc1cc(=O)[nH]c2c(F)c(F)ccc12)c1cccc(Cl)c1

[63, 20, 39, 18]

====

Tested on: Mus musculus
Assay: Reduction of plasma nitrate level in LPS-challenged po dosed BALB/c mouse
Type: functional
endpointLabel: ED50 (mg/kg)
One number for each entry, in mg/kg.

Below, each entry is followed by its recorded ED50 result.
Cc1ncsc1C(=O)N(Cc1cc(=O)[nH]c2c(F)cccc12)c1cccc(Cl)c1 = 10
CC1=C(C(=O)N(Cc2cc(=O)[nH]c3c(F)c(F)ccc23)c2cccc(Cl)c2)CNCC1 = 16
Cn1cncc1C(=O)N(Cc1cc(=O)[nH]c2c(F)c(F)ccc12)c1cccc(Cl)c1 = 5

As a next step, examine the molecule that follows.
May I ask what ED50 has been recorded for Cc1ncsc1C(=O)N(Cc1cc(=O)[nH]c2c(F)c(F)ccc12)c1cccc(Cl)c1 ? 13

====

Test system: Mus musculus
Assay: Reduction of plasma nitrate level in LPS-challenged BALB/c mouse at 30 mg/kg, po
Type: functional
Design: scale not given: the % may be the effect or the level left
# if measured Activity < 70%: Criterion met  # else: Criterion not met

These solved cases illustrate the format of a correct answer.
Cc1ncsc1C(=O)N(Cc1cc(=O)[nH]c2c(F)cccc12)c1cccc(Cl)c1 = Criterion not met
CC(C)C(=O)N(Cc1cc(=O)[nH]c2c(F)cccc12)c1cccc(Cl)c1 = Criterion met
Cc1ncsc1C(=O)N(Cc1c[n+]([O-])cc2c(F)c(F)ccc12)c1cccc(Cl)c1 = Criterion met

Identify whether the molecule Cc1ncsc1C(=O)N(Cc1c[n+]([O-])cc2c(F)cccc12)c1cccc(Cl)c1 records Activity below 70%. Criterion met

Also Cc1ncsc1C(=O)N(Cc1cc(=O)[nH]c2c(F)c(F)ccc12)c1cccc(Cl)c1 , if possible. Criterion met

Also Cc1noc(C)c1C(=O)N(Cc1cc(=O)[nH]c2c(F)c(F)ccc12)c1cccc(Cl)c1 , if possible. Criterion met

Also Cc1ncsc1C(=O)N(Cc1c(F)c(=O)[nH]c2c(F)cccc12)c1cccc(Cl)c1 , if possible. Criterion met

Also Cn1cncc1C(=O)N(Cc1cc(=O)[nH]c2c(F)c(F)ccc12)c1cccc(Cl)c1 , if possible. Criterion not met

Also CC1=C(C(=O)N(Cc2cc(=O)[nH]c3c(F)c(F)ccc23)c2cccc(Cl)c2)CNCC1 , if possible. Criterion not met
